Ref: the nanobody polyreactivity screen of Harvey et al. (2022)

Assay: yeast display, Sf9 membrane polyspecificity reagent, FACS + sequencing; frameworks hold sequencing errors
quantity name: polyreactivity (PSR sort gate)

Examples from the recorded data:
residue string | polyreactivity (PSR sort gate)
QVQLVESGGGLVQAGGSLRLSCADSGRTFRANAMGWYRQAPGKERELVAAITSTGDRTYYADSVKGRFTISRDNAKNTVYLQMNSLKPEDTAVYYGNAVYDLYHYWKFYYWGQGTQVTVSS | low polyreactivity
QVQLVESGGGLVQAGGSLRLSCAASGSIFADYAMGWYRQAPGKERELVAAITASGGTTYYADSVKGRFTISRDNAKNTVYVQMNSLKPEDTAVYYCNAGNRTFLYDRDDYWGQGTQVSVSS | high polyreactivity
QVQLGESGGGLVQAGGSLRLICAASGRTFKKYPMGWYRQAPGKERDVVAAISWSGGTTYYAHSEKGRFTISRDTAKNTVYLQMNSLKPEDTAVYYSAARVSRTGHGYYYYWGQVTQVTVSS | high polyreactivity
QVQLVETGGGLVQAGGSLRLSCAASGRTFWGHAMGWYRQAPRKERELVASISSRGSSTYYADSVKGRFTISRDNAKNTVYLQMNSLKPEDTAVYYCAARTHYFPWPWYVWDYDSWGQGTQVTVSS | low polyreactivity
QVQLVESGGGLVQAGGSLRLSCAASGYTFTIYSMGWYRQAPGKERELVAAISWNGGRTYYADSVKGRFTISRDNAKNTVYLKMNSLKPEDTAVYDCNADNFSAGDYWGQGTQVTVSS | high polyreactivity

Could you tell me which polyreactivity (PSR sort gate) is on file for QVQLVESGGGLVQAGGSLRLSCAASGSIFYSYAMGWYRQAPGKERELVAGIRSDGNTNYADSVKGRFTISRDNAKNTVYLQMNSLKPEDTAVYYCARLRYFLLNGSLRYGTSDRDYWGQGTQVTVSS ?
high polyreactivity

Now the sequence QVHLVESGGGLVQAAGSLRLSCAASGFIFYYYAMGWYRQAPGKERELVAAISRSGGRTYYADSVKGRFTISRDNAKNTVYLQMNSLKPEDTAVYYCAAPGYQTVGMGYWGQGTQVTVSS
high polyreactivity

Repeat with QVQLVESGGGLVQAGGSLRLSCAASGIIFSTYAMGWYRQAPGKERELVAAISYGGGSTYYADSVKGRFTISRDNEKNTVYLQMNSLKPEDTAVYYCAADSYRAYYYWGQGTQVTVSS
high polyreactivity

Field entry: QVQLVESGGGLVQAGGSLRLSCASSGGTFEVNAMGWYRQAPGKERELVAAIDTSDGSTYYADSVKGRFTISRDNAKNTVYFQMNSLKPEDTSVYYCAAERLFRFWYSAYERYDYWGQGTQVTVSS
low polyreactivity

Thanks! And QVQLVESGGGLVQAGGSLRLSCAASGSIIGRYTMGWYRQAPGKERELVAAISRSGGSTYYADSVKGRFTISRDNAKNTVYLQMNSLKPEDTAVYYCAARYRAKRRYYYWGQGTQVTVSS ?
high polyreactivity

Also QVQLEESGGGLVQAGGSLRLSCAASGRTFALYAMGWYRQAPGKERELVASISWRGGSTYYADSVKGRFTISRDNAKNTVYLQMNSLKPEDTAVYYCAADTWSYGPLNYRLEYWGQGTQVTVSS , if possible.
low polyreactivity
